Give measured self-cleavage for each item. Keep answers brief.
B1: Hairpin Ribozyme (parent)
chain: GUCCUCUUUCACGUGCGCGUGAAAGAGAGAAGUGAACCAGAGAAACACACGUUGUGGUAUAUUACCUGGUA

Variants of: B1
measurementDescription: self-cleavage, relative activity (ratio to wild type); higher = more cleavage; co-transcriptional
Numbers only.

In the examples that follow, each entry is paired with its recorded self-cleavage.
>  <variantId>
G13C A59C

>  <self-cleavage>
0.11

$$$$
>  <variantId>
U9C U55C

>  <self-cleavage>
0.134

$$$$
>  <variantId>
U14A A41U

>  <self-cleavage>
1.04

$$$$
>  <variantId>
G15A A28U

>  <self-cleavage>
0.588

$$$$
>  <variantId>
A30U A71G

>  <self-cleavage>
0.286

$$$$

# batch: return self-cleavage for each of the 7 variants below
1. G32U A35G
2. C4U A31G
3. G21A C66G
4. U20A U62A
5. A26G A59G
6. C3A G25U
7. G32C C48A

[0.0968, 0.0741, 0.156, 0.239, 0.158, 0.406, 0.112]

# batch: return self-cleavage for each of the 3 variants below
1. A31C G68C
2. U2G A23G
3. U20A U52G

1: 0.135; 2: 0.318; 3: 0.685

# batch: return self-cleavage for each of the 7 variants below
1. A22U A31U
2. C6A C37G
3. A43U U63A
4. G40A U52G
5. G56A A71G
6. A30U A43U
7. A36U U52G

[0.12, 0.287, 0.107, 0.212, 0.245, 0.0952, 0.466]

Provenance of the data: the RNAGym collection of RNA variant scans (doi:10.7554/elife.80360)
